- target.entity: JAK3 (Homo sapiens)
- Sequence (P52333 1-1124): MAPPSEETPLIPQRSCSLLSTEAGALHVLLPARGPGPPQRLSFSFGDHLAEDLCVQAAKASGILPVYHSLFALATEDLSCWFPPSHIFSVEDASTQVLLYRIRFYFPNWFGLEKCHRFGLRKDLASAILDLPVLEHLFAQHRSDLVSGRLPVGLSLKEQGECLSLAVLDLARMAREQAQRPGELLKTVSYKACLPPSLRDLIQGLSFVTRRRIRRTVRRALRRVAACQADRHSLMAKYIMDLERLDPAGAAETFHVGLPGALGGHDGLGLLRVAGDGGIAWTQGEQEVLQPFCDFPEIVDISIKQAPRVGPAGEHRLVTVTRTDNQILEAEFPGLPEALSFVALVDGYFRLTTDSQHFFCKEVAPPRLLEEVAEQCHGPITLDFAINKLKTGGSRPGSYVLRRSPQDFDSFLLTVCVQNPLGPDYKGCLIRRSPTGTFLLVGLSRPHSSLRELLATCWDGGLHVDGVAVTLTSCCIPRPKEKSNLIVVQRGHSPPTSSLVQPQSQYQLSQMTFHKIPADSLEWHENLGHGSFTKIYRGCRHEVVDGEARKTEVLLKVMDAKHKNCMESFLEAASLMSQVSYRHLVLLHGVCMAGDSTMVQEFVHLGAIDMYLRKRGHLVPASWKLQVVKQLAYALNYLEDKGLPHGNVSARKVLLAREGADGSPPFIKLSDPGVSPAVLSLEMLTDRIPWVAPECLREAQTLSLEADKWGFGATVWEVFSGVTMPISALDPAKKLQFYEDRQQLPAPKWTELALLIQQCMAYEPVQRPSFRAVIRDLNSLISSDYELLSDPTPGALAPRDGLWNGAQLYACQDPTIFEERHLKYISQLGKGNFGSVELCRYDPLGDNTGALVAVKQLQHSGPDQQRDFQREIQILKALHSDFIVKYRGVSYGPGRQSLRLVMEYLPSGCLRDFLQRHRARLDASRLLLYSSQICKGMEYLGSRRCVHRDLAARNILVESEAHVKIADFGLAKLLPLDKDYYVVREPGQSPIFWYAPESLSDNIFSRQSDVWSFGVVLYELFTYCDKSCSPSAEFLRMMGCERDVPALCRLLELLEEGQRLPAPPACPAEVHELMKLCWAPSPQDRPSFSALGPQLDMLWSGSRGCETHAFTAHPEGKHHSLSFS
pKi: −log10 of the molar value.
// values below are reported pKi
property.name: pKi

compound: Nc1nn2cc(N3CCOCC3)cnc2c1-c1ccccn1 [Compound V-57]
target.entity: JAK3 (Homo sapiens)
measured.result: < 5.30

compound: Nc1nn2cc(-c3cccc(C(=O)N4CCC(CCO)CC4)n3)cnc2c1-c1ccccn1 [Compound V-141]
target.entity: JAK3 (Homo sapiens)
measured.result: < 5.30

compound: CC(=O)N1CCN(c2ccc(-c3cnc4c(-c5ccccn5)c(N)nn4c3)cn2)CC1 [Compound V-149]
target.entity: JAK3 (Homo sapiens)
measured.result: 5.30 to 6.30

compound: Cc1cnc2c(-c3cc(N[C@@H]4CCOC4)ncn3)c(N)nn2c1 [Compound V-335]
target.entity: JAK3 (Homo sapiens)
measured.result: 5.30 to 6.30

compound: COc1cccc(OC)c1-c1cnc2c(-c3ccccn3)c(N)nn2c1 [Compound V-3]
target.entity: JAK3 (Homo sapiens)
measured.result: < 5.30

compound: Nc1nn2cc(-c3ccc(CN4CC[C@H](N)C4)cc3)cnc2c1-c1ccccn1 [Compound V-233]
target.entity: JAK3 (Homo sapiens)
measured.result: 5.30 to 6.30

compound: Cc1cnc2c(-c3cc(NC4CCN(Cc5ccccc5)C4)ncn3)c(N)nn2c1 (stereo not shown) [Compound V-286]
target.entity: JAK3 (Homo sapiens)
measured.result: 5.30 to 6.30
